Quick list: Ki per entry.
Molecular target: human 5-HT2A receptor (Homo sapiens, UniProt P28223)
Sequence (P28223 whole entry): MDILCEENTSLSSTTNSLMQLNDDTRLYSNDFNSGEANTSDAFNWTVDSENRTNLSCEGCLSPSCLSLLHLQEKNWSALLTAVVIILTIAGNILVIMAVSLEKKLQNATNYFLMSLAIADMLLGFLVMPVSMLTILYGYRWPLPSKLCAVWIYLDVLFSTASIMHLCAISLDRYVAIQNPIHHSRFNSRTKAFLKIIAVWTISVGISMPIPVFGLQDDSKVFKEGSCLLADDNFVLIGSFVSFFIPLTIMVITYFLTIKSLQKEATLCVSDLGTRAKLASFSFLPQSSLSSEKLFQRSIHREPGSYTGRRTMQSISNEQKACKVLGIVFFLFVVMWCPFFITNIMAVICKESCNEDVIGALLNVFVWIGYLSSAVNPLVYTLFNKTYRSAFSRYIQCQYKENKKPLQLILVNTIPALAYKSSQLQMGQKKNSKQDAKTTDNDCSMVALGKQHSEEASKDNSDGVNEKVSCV
ATTRIBUTE MEASURED: Ki

CS(=O)(=O)N[C@H]1CC[C@H](CCN2CCN(c3nccc4c3OCC4)CC2)CC1 [Example 26] : 70.8 nM
O=C(N[C@H]1CC[C@H](CCN2CCN(c3nccc4c3OCC4)CC2)CC1)c1ccc(-c2ccccc2)cc1 [Example 70] : 45.6 nM
CC(C)CC(=O)N[C@H]1CC[C@H](CCN2CCN(c3nccc4c3OCC4)CC2)CC1 [Example 24] : 44.9 nM

----------
Biological target: human D3 receptor (Homo sapiens)
Sequence (P35462 whole entry): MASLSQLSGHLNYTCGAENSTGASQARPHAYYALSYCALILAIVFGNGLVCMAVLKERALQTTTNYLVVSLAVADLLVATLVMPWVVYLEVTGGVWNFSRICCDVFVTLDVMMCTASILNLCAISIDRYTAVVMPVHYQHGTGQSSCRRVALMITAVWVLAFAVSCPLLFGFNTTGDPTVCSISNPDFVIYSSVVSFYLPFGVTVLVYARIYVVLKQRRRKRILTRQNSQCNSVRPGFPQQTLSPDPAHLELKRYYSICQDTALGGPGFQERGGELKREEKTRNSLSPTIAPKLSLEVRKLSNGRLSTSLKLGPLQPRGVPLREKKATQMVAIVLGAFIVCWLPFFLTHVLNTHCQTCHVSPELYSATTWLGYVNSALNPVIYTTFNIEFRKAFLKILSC
// boundary case: Ki equal to 7 nM maps to Criterion not met; strictly smaller maps to Criterion met

CN(C)C(=O)N[C@H]1CC[C@H](CCN2CCN(c3nccc4c3OCC4)CC2)CC1 : Criterion not met
O=C(N[C@H]1CC[C@H](CCN2CCN(c3nccc4c3OCC4)CC2)CC1)c1ccc(C(F)(F)F)cc1 : Criterion not met
O=C(CC1COCCO1)N[C@H]1CC[C@H](CCN2CCN(c3nccc4c3OCC4)CC2)CC1 (stereo partly drawn) : Criterion not met
CC(C)(O)CC(=O)N[C@H]1CC[C@H](CCN2CCN(c3nccc4c3OCC4)CC2)CC1 : Criterion not met
COC(C)CC(=O)N[C@H]1CC[C@H](CCN2CCN(c3nccc4c3OCC4)CC2)CC1 (mixture of isomers) : Criterion not met
O=C(N[C@H]1CC[C@H](CCN2CCN(c3nccc4c3OCC4)CC2)CC1)c1ccc(Cl)cc1 : Criterion not met
CCC(=O)N[C@H]1CC[C@H](CCN2CCN(c3nccc4ccsc34)CC2)CC1 : Criterion met
C/C=C/CC(=O)N[C@H]1CC[C@H](CCN2CCN(c3nccc4c3OCC4)CC2)CC1 : Criterion met
O=C(Cc1noc2ccccc12)N[C@H]1CC[C@H](CCN2CCN(c3nccc4c3OCC4)CC2)CC1 : Criterion met
CN1CCN(c2ccc(C(=O)N[C@H]3CC[C@H](CCN4CCN(c5nccc6c5OCC6)CC4)CC3)cc2)CC1 : Criterion met
CC(C)(C)c1ccc(C(=O)N[C@H]2CC[C@H](CCN3CCN(c4nccc5c4OCC5)CC3)CC2)cc1 : Criterion not met
O=C(N[C@H]1CC[C@H](CCN2CCN(c3nccc4c3OCC4)CC2)CC1)c1ccc(-n2cccn2)cc1 : Criterion not met
O=C(N[C@H]1CC[C@H](CCN2CCN(c3nccc4c3OCC4)CC2)CC1)C1CCOC1 (stereo partly drawn) : Criterion not met
O=C(CC1CCC1)N[C@H]1CC[C@H](CCN2CCN(c3nccc4c3OCC4)CC2)CC1 : Criterion met
O=C(N[C@H]1CC[C@H](CCN2CCN(c3nccc4c3OCC4)CC2)CC1)C1CC1 : Criterion not met
CC(C)CC(=O)N[C@H]1CC[C@H](CCN2CCN(c3nccc4c3OCC4)CC2)CC1 : Criterion met
CCCC(=O)N[C@H]1CC[C@H](CCN2CCN(c3nccc4c3OCC4)CC2)CC1 : Criterion not met
CS(=O)(=O)CC(=O)N[C@H]1CC[C@H](CCN2CCN(c3nccc4c3OCC4)CC2)CC1 : Criterion met
O=S(=O)(N[C@H]1CC[C@H](CCN2CCN(c3nccc4c3OCC4)CC2)CC1)c1ccccc1 : Criterion met
O=C(C[C@@H]1COCCO1)N[C@H]1CC[C@H](CCN2CCN(c3nccc4c3OCC4)CC2)CC1 : Criterion not met
N#Cc1ccc(C(=O)N[C@H]2CC[C@H](CCN3CCN(c4nccc5c4OCC5)CC3)CC2)cc1 : Criterion not met
O=C(N[C@H]1CC[C@H](CCN2CCN(c3nccc4c3OCC4)CC2)CC1)c1cnc(N2CCOCC2)cn1 : Criterion not met
CO[C@@H]1CC[C@@H](CC(=O)N[C@H]2CC[C@H](CCN3CCN(c4nccc5ccsc45)CC3)CC2)C1 (racemic) : Criterion not met
CCC(=O)N[C@H]1CC[C@H](CCN2CCN(c3nccc4c3OCC4)CC2)CC1 : Criterion met

The reported measurements were obtained from patent US8470828B2.
